target: Polymerase acidic protein (Influenza A virus (A/Puerto Rico/8/1934(H1N1))); experiment: Inhibition of Influenza A virus N-terminal Polymerase acidic protein endonuclease activity in HEK293T cells transfected with IAV RNA polymerase complex and firefly/renilla luciferase reporter by […] Dual-Glo luciferase assay
As shown below, each of these compounds has a reported IC50 value.

>  <COMPOUND>
O=C1c2c(O)c(=O)ccn2N(C2c3ccccc3SCc3c2ccc(F)c3F)C[C@H]2CCCN12 (stereo partly specified)

>  <MEASURED ON>
Polymerase acidic protein (Influenza A virus (A/Puerto Rico/8/1934(H1N1)))

>  <UNIT TEXT>
nM

>  <IC50>
82

$$$$
>  <COMPOUND>
O=C1c2c(O)c(=O)ccn2N([C@H]2c3ccccc3SCc3c2ccc(F)c3F)C[C@H]2CCCN12

>  <MEASURED ON>
Polymerase acidic protein (Influenza A virus (A/Puerto Rico/8/1934(H1N1)))

>  <UNIT TEXT>
nM

>  <IC50>
231

$$$$
>  <COMPOUND>
O=C1c2c(O)c(=O)ccn2N(C2c3ccccc3C=Cc3ccccc32)C[C@H]2CCCN12

>  <MEASURED ON>
Polymerase acidic protein (Influenza A virus (A/Puerto Rico/8/1934(H1N1)))

>  <UNIT TEXT>
nM

>  <IC50>
437

$$$$
>  <COMPOUND>
O=C1c2c(O)c(=O)ccn2N(C2c3ccccc3CCc3ccccc32)C[C@H]2CCCN12

>  <MEASURED ON>
Polymerase acidic protein (Influenza A virus (A/Puerto Rico/8/1934(H1N1)))

>  <UNIT TEXT>
nM

>  <IC50>
2870

$$$$
>  <COMPOUND>
O=C1c2c(O)c(=O)ccn2N([C@@H]2c3ccccc3SCc3c2ccc(F)c3F)C[C@H]2CCCN12

>  <MEASURED ON>
Polymerase acidic protein (Influenza A virus (A/Puerto Rico/8/1934(H1N1)))

>  <UNIT TEXT>
nM

>  <IC50>
45

$$$$
>  <COMPOUND>
O=C1c2c(O)c(=O)ccn2N([C@@H]2c3ccccc3SCc3c2ccc(F)c3F)[C@@H]2COCCN12

>  <MEASURED ON>
Polymerase acidic protein (Influenza A virus (A/Puerto Rico/8/1934(H1N1)))

>  <UNIT TEXT>
nM

>  <IC50>
1

$$$$

Data origin, for the record: ChEMBL document CHEMBL5608178
